# Organism: Homo sapiens
# Assay info: To identify inhibition of the IFN signalling (Jak-Stat) pathway via expression of an eGFP reporter gene under the control of an IFN-stimulated response element (ISRE) containing MxA promoter.
# Format: functional
# Parameters: scale not given: direction of the effect not stated beside the values
# Particulars: 30 µM
Test readout: Percent Effect (%)
Expressed in %, but write only the number.

Worked examples follow.
[
  {
    "Molecule": "COCCc1noc(CNC2CCc3nc(C(C)C)nn3C2)n1 (centres undefined)",
    "Test readout": "Percent Effect",
    "Value observed": 17.2
  },
  {
    "Molecule": "CN(C)c1ccc(CCNC(=O)C2CCC(=O)N(C3CCCC3)C2)cc1 (centres undefined)",
    "Test readout": "Percent Effect",
    "Value observed": 1.03
  }
]

Task item: # lookup: Percent Effect of O=C(CCCn1cncn1)NC1(c2ccccc2)CCC1
Reply: 15.5

Task item: # lookup: Percent Effect of O=C(NCCc1cccc(O)c1)NC1CCN(c2ccccc2)C1=O (centres undefined)
Reply: -6.77

Task item: # lookup: Percent Effect of Cc1nnc(N2CCC(CS(N)(=O)=O)CC2)c(C#N)c1C
Reply: 7.88

Task item: # lookup: Percent Effect of CC(C)C1CN(c2ncccn2)CCC(=O)N1Cc1ccc(F)cc1 (centres undefined)
Reply: 8.83

Task item: # lookup: Percent Effect of CC(C)N(C)Cc1nnc2n1CCCN(C(=O)c1ccco1)C2
Reply: 24.5

Task item: # lookup: Percent Effect of CCc1noc(CN(C)Cc2ccc(N3CCCCC3)cc2)n1
Reply: 5.54
